- Test system: KM12 colon
- ASSAY_REMARKS: NCI tumour cell line growth inhibition, 48 h; in the data active means GI50 below about 0.43 µM; inactive means the rest
Respond using exactly one of the listed classes: true = active, false = inactive

See these solved cases before continuing.
>  <MOLECULE>
CC(C)(C)c1n[nH]c(=S)n(/N=C/c2ccc(F)c(Oc3ccccc3)c2)c1=O

>  <CATEGORY>
false

$$$$
>  <MOLECULE>
O=C1c2c(c3c4ccccc4[nH]c3c3ccc4ccccc4c23)C(=O)N1CCN1CCCCC1

>  <CATEGORY>
false

$$$$
>  <MOLECULE>
C[C@]12CC[C@H]3[C@@H](CCC4=CC(=O)CC[C@@H]43)[C@@H]1CC[C@@H]2OC(=O)CCc1ccccc1

>  <CATEGORY>
false

$$$$
>  <MOLECULE>
O=C(NN1C(=O)CSC12CCCCC2)c1[nH]c2ccc(F)cc2c1-c1ccccc1

>  <CATEGORY>
false

$$$$
>  <MOLECULE>
O=c1[nH]c2ccccc2nc1-c1c[nH]c2ccccc12

>  <CATEGORY>
false

$$$$

Q: State the result this test recorded for CCN1CCC(CCOC)(CN2c3ccccc3Sc3ccc(Cl)cc32)C1 (centres undefined) .
Ans: false

Q: GET /call?item= "COc1cc2nc(N3CCCC3)nc(NCC3CCCCC3)c2cc1OC" returns the recorded outcome of this test.
Ans: false

====

TGI overview
- Tested on: ACHN renal
- ASSAY_REMARKS: NCI tumour cell line growth inhibition, 48 h

Solved entries (count: 5):
>  <COMPOUND>
Cc1ccccc1N=Nc1ccc(N=Nc2c(O)ccc3ccccc23)c(C)c1

>  <ENDPOINT>
TGI

>  <RESULT>
> 100 µM

$$$$
>  <COMPOUND>
COc1cc2c(c(OC)c1OC)C(=O)[C@H](O)[C@H]2NC(N)=O

>  <ENDPOINT>
TGI

>  <RESULT>
> 100 µM

$$$$
>  <COMPOUND>
[N-]=[N+]=Nc1c(-c2ccccc2)c(Cl)nc2ccccc12

>  <ENDPOINT>
TGI

>  <RESULT>
> 100 µM

$$$$
>  <COMPOUND>
O=c1ccc2cc(O)c(O)cc2o1

>  <ENDPOINT>
TGI

>  <RESULT>
> 100 µM

$$$$
>  <COMPOUND>
O=C1C(=O)N(c2ccc(Cl)c(Cl)c2)C(=O)C(=O)C1c1nc2ccccc2s1

>  <ENDPOINT>
TGI

>  <RESULT>
> 100 µM

$$$$

Please find the next compound below.
# compound "N#Cc1c(N/N=C/c2c(Cl)cccc2Cl)nc(N)nc1N1CCOCC1" ; its TGI = > 100 µM

====

- Test system: XF 498 CNS
- ASSAY_REMARKS: NCI tumour cell line growth inhibition, 48 h
ENDPOINT: TGI

Reference set (3 entries):
>  <COMPOUND>
COc1ccc(OC)c(NC(=O)CCC/C(CC(=O)c2ccc(O)c(OC)c2)=N\NC(=O)C[N+](C)(C)C)c1

>  <TGI>
> 100 µM

$$$$
>  <COMPOUND>
CCOC(=O)C(C)(c1cn(C)c2ccccc12)c1cn(C)c2ccccc12

>  <TGI>
> 100 µM

$$$$
>  <COMPOUND>
CCCCNCC(=O)O[C@]1(CC)C(=O)OCc2c1cc1n(c2=O)Cc2cc3ccccc3nc2-1

>  <TGI>
2.92 µM

$$$$

// TGI value for "Cn1cnc2nc(Cl)nc(NC(C)(C)C(C)(C)O)c21" : > 100 µM

The recorded TGI for entry CCO[C@]12C[C@H](OC)[C@@]3(O)CC(C1[C@H]3OCc1ccccc1)C13C4C2[C@H](OC)C1[C@](COC)(CN4CC)[C@H](O)C[C@@H]3OC (stereo partly specified) equals > 100 µM

The compound identified as CC(=O)OC1CCn2nnc(CO[Si](C)(C)C(C)(C)C)c21 (stereo unspecified) registered its TGI at > 100 µM

====

Measured TGI of individual entries
- System: SK-MEL-28 melanoma
- ASSAY_REMARKS: NCI tumour cell line growth inhibition, 48 h

Some solved entries appear below for comparison.
>  <COMPOUND>
CSCC1CC(c2ccc(Cl)cc2)=NO1 (stereo unspecified)

>  <TGI>
> 100 µM

$$$$
>  <COMPOUND>
Cc1ccccc1N=Nc1ccc(N=Nc2c(O)ccc3ccccc23)c(C)c1

>  <TGI>
> 100 µM

$$$$
>  <COMPOUND>
O=c1cc(-c2ccccc2)[nH]c2cc(O)ccc12

>  <TGI>
> 100 µM

$$$$
>  <COMPOUND>
COc1cc(C(=O)C/C(CCC(=O)Nc2ccccc2[N+](=O)[O-])=N\NC(=O)CC#N)ccc1O

>  <TGI>
> 100 µM

$$$$
>  <COMPOUND>
C#CCOCC12C=CC(O1)C1C(=O)N(C)C(=O)C12 (stereo unspecified)

>  <TGI>
> 100 µM

$$$$

Item CCOC(=O)C1Oc2ccc([N+](=O)[O-])c3c2C1(O)CCC3 (stereo unspecified) was tested on SK-MEL-28 melanoma; the reported TGI is > 100 µM

The compound "CN(C)c1ccc(C=C2C(=O)OC(C)(C)OC2=O)cc1Br" , tested on SK-MEL-28 melanoma, showed TGI of > 100 µM

Measured on SK-MEL-28 melanoma, "COc1ccc2cc(-c3ccoc(=O)c3-c3cc(OC)c(OC)c(OC)c3)ccc2c1" has a documented TGI of > 100 µM

Value (TGI, SK-MEL-28 melanoma) for record "C=CCOC(=O)/C(=C\c1ccc(OC)c(OC)c1)c1ccc(OC)c(OC)c1" = > 100 µM

Record COC1CC(OS(=O)(=O)c2ccc(C)cc2)C(OC(=O)c2ccccc2)C(C)O1 (stereo unspecified) ; system SK-MEL-28 melanoma; TGI = > 100 µM

====

- Test system: UACC-257 melanoma
- ASSAY_REMARKS: NCI tumour cell line growth inhibition, 48 h; in the data active = GI50 below about 0.43 µM; inactive = the rest
Lab note: assign the record to one of class 1 for active, class 0 for inactive

Past entries and their recorded results:
>  <COMPOUND>
CN(C)c1ccc2c(c1)Sc1cc(N(C)C)ccc1N2C(=O)c1ccccc1

>  <SYSTEM_TESTED>
UACC-257 melanoma

>  <CATEGORY>
class 0

$$$$
>  <COMPOUND>
CC(C)CC(CC1=CCC2CC1C2(C)C)C1=C(O)C(C)(C)C(=O)C(C)(C)C1=O (stereo not given)

>  <SYSTEM_TESTED>
UACC-257 melanoma

>  <CATEGORY>
class 1

$$$$
>  <COMPOUND>
CC(C)(C)c1ccc(OCCCCCCN2CCNCC2)cc1

>  <SYSTEM_TESTED>
UACC-257 melanoma

>  <CATEGORY>
class 0

$$$$
>  <COMPOUND>
COC(=O)Cn1c2c(c3c(O)cccc31)C(=O)c1ccccc1-2

>  <SYSTEM_TESTED>
UACC-257 melanoma

>  <CATEGORY>
class 0

$$$$

Q: What classification did "C=CC(=O)N1CCN(c2ccc3cccc(NC(=O)c4cnc(C)cn4)c3n2)CC1" end up with in this test?
Ans: class 0

====

- Test system: RPMI-8226 leukemia
- ASSAY_REMARKS: NCI tumour cell line growth inhibition, 48 h
ENDPOINT: TGI

# count of solved cases: 5
>  <COMPOUND>
COC(=O)c1c2n(c3ccccc13)C[C@H]1OC(C)(C)O[C@@H]21

>  <TGI>
> 100 µM

$$$$
>  <COMPOUND>
N#CC(C(=O)CCC(=O)Nc1cccc(Cl)c1)c1ccccc1 (stereo not given)

>  <TGI>
> 100 µM

$$$$
>  <COMPOUND>
CCCn1c(C)nc2c1C(=O)c1ccccc1C2=O

>  <TGI>
> 100 µM

$$$$
>  <COMPOUND>
COc1nc2c(c(=O)n1C)N(C(C)=O)C1C(N2)OCC(OC(C)=O)C1OC(C)=O (stereo not given)

>  <TGI>
> 10 µM

$$$$
>  <COMPOUND>
COCn1c2ccc(OC(C)=O)cc2c2c(=O)oc(N(C)C)nc21

>  <TGI>
> 100 µM

$$$$

Reported TGI of "COc1cc(C(=O)C/C(CCC(=O)Nc2ccccc2[N+](=O)[O-])=N\NC(=O)CC#N)ccc1O" : > 100 µM

Consider Cc1cc(C)c(C2=NOC(c3ccccc3)(c3cc(=O)n(-c4ccccc4)s3)O2)c(C)c1 (stereo not given) . Its measured TGI is > 100 µM

# TGI of "N/C(=N\N=C\c1ccc(-c2ccccc2)cc1)N[N+](=O)[O-]" = > 100 µM

// field: TGI; key: "COc1ccc(-c2cc(-c3ccccc3)nc(SCCCC(=O)NO)n2)cc1" ; value = > 22.9 µM

For "Cn1c(/C=C(\O)c2ccc(Cl)cc2)nc2ccccc21" the compound record lists TGI as > 100 µM
